Experiment: plasma concentration in rats after intravenous administration
Type: in vivo
Details: plasma, iv; rat, i.v. 1 mg/kg, 30 min
Here the recorded concentration at 0.5 h is given for each entry.
The reply should consist of the numeric value with the unit placed after it.

molecule	concentration at 0.5 h
CC(=O)N1CCN(C(=O)[C@H](Cc2cccc(C(=N)N)c2)NS(=O)(=O)c2ccc3ccccc3c2)CC1.Cl	95 ng/mL
CN(C)C(=O)N1CCN(C(=O)[C@H](Cc2cccc(C(=N)N)c2)NS(=O)(=O)c2ccc3ccccc3c2)CC1	194 ng/mL

Data request, read-out concentration at 0.5 h, for Cl.Cl.N=C(N)c1cccc(C[C@H](NS(=O)(=O)c2ccc3ccccc3c2)C(=O)N2CCN(CCO)CC2)c1
313 ng/mL

Would you mind telling me what concentration at 0.5 h value was observed for CC(=O)N1CCN(C(=O)C(Cc2cccc(C(=N)N)c2)NS(=O)(=O)c2ccc3ccccc3c2)CC1 (stereo not drawn) ?
150 ng/mL

# concentration at 0.5 h lookup, item CS(=O)(=O)N1CCN(C(=O)[C@H](Cc2cccc(C(=N)N)c2)NS(=O)(=O)c2ccc3ccccc3c2)CC1.Cl
151 ng/mL

I am curious: what concentration at 0.5 h value has been reported for CCOC(=O)N1CCN(C(=O)C(Cc2cccc(C(=N)N)c2)NS(=O)(=O)c2ccc3ccccc3c2)CC1 (racemic) [X, reference compound] ?
40 ng/mL

###

Molecular target: thrombin (Bos taurus, UniProt P00735)
Assay: biochemical
In this section, each of the compounds is paired with its reported Ki.
Give me the value, and tack the unit on after it.

compound	tested-on	parameter-measured	test-value
N=C(N)c1cccc(CC(NS(=O)(=O)c2ccc3ccccc3c2)C(=O)N2CCN(c3ccccn3)CC2)c1 (centres unmarked) [AMD 2-Naph 2-Pyl]	thrombin (Bos taurus, UniProt P00735)	Ki	520 nM
CN(C)C(=O)N1CCN(C(=O)[C@H](Cc2cccc(C(=N)N)c2)NS(=O)(=O)c2ccc3ccccc3c2)CC1 [Compound 6]	thrombin (Bos taurus, UniProt P00735)	Ki	4 nM

For the compound shown here, N=C(N)c1cccc(CC(NS(=O)(=O)c2ccc3ccccc3c2)C(=O)N2CCN(c3ncccn3)CC2)c1 (centres unmarked) [AMD 2-Naph 2-Pym] , give the reported Ki.
1800 nM

Item N=C(N)c1cccc(CC(NS(=O)(=O)c2ccc3ccccc3c2)C(=O)N2CCN(C(=O)C3CC3)CC2)c1 (centres unmarked) [AMD 2-Naph CO-cPr] has what recorded Ki?
140 nM

Return reported Ki; argument: COCC(=O)N1CCN(C(=O)C(Cc2cccc(C(=N)N)c2)NS(=O)(=O)c2ccc3ccccc3c2)CC1 (centres unmarked) [AMD 2-Naph COCH2 OMe]
1300 nM

What value of measured Ki is listed for CCOC(=O)N1CCN(C(=O)C(Cc2cccc(C(=N)N)c2)NS(=O)(=O)c2ccc3ccccc3c2)CC1 (racemic) [X, reference compound] ?
670 nM

Recorded Ki for CC(C)C(=O)N1CCN(C(=O)C(Cc2cccc(C(=N)N)c2)NS(=O)(=O)c2ccc3ccccc3c2)CC1 (centres unmarked) [AMD 2-Naph COCH(Me)2] , please?
260 nM

Given the entry Cc1c(C)c(S(=O)(=O)NC(Cc2cccc(C(=N)N)c2)C(=O)N2CCN(CCO)CC2)c(C)c2c1OC(C)(C)CC2 (centres unmarked) [AMD Pmc EtOH] , report its measured Ki.
59 nM

Tell me the measured Ki of N=C(N)c1cccc(CC(NS(=O)(=O)c2ccc3c(c2)C(=O)c2ccccc2C3=O)C(=O)N2CCN(C=O)CC2)c1 (centres unmarked) [AMD AC For] , please.
31 nM

For the compound N=C(N)c1cccc(C[C@H](NS(=O)(=O)c2ccc3ccccc3c2)C(=O)N2CCN(C=O)CC2)c1 [AMD(L) 2-Naph For] , what Ki is on record?
11 nM
